Target: KDM4B-DTD S965D (human, UniProt O94953 917-1031, S965D)
Sequence (O94953 917-1031 S965D): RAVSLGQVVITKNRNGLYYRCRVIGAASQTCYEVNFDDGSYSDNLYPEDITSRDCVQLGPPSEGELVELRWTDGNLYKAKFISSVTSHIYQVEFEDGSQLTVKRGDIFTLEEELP
Assay: FP
No end group written: not given here.
RECORDED_METRIC: Kd (µM)
Report only the number, with the unit µM understood.

*Q* What value of Kd has been reported for the following binder? RKQLATK(Me3)AARKSAPAT (also: fluorescein label, end not given here) [H3 (17-32) K23me3 peptide, fluorescein-labelled]
*A* 16.4

meta.source: paper PMC5114558
